Where these numbers come from: paper PMC11620503

# Test system: serine-carbapenemase-producing isolates (Enterobacterales)
# Assay text: MIC, broth microdilution
# Assay type: cell-based
# Measurement parameters: Enterobacterales with serine-carbapenemases (80); fixed concentration (μg/mL) in label; read-out: MIC90
Property: MIC90; scope: individual molecules

- Smiles repr: "CC(C)(O/N=C(\\C(=O)N[C@@H]1C(=O)N2C(C(=O)[O-])=C(C[N+]3(CCNC(=O)c4ccc(O)c(O)c4Cl)CCCC3)CS[C@H]12)c1csc(N)n1)C(=O)O"
  MIC90 [µg/mL]: 2
- Smiles repr: "CN(C)c1cc(NC(=O)CNC(C)(C)C)c(O)c2c1C[C@H]1C[C@H]3[C@H](N(C)C)C(O)=C(C(N)=O)C(=O)[C@@]3(O)C(O)=C1C2=O"
  MIC90 [µg/mL]: 2
- Smiles repr: "C[C@@H](O)[C@H]1C(=O)N2C(C(=O)O)=C(S[C@@H]3CN[C@H](C(=O)N(C)C)C3)[C@H](C)[C@H]12"
  MIC90 [µg/mL]: 32

###

# System tested: KPC-3 (Klebsiella pneumoniae, UniProt Q9F663, H272Y)
# Sequence (Q9F663 25-293 H272Y): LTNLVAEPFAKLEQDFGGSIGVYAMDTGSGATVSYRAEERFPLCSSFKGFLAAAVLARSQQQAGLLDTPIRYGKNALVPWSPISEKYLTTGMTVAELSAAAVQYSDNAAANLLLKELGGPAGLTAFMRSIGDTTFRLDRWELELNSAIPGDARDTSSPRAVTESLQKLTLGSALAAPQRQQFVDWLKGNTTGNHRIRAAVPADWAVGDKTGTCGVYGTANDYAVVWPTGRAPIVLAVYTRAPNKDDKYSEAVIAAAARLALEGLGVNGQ
# Assay text: Ki app determination (Waley's method)
# Measurement parameters: read-out: Ki app; KPC-3; means from three independent studies

- Molecule: "NCCN[C@H]1CC[C@H](CC(=O)N[C@H]2Cc3cccc(C(=O)O)c3OB2O)CC1 [Tanibobactam, taniborbactam]"
  Ki: "0.947 nM"

###

# System tested: PDC-11 (Pseudomonas aeruginosa, UniProt P24735, form not given, species not given)
# Sequence (P24735 27-397): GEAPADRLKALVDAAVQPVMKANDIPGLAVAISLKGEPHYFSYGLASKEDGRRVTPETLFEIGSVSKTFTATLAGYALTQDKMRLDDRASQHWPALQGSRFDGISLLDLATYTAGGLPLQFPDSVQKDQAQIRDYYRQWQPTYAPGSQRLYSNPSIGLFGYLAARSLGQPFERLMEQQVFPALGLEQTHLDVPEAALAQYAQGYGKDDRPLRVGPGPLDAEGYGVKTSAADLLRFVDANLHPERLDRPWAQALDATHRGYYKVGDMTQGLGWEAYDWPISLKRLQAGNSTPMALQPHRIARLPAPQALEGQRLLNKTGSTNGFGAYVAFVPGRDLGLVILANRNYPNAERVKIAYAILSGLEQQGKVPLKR
# Assay text: Ki app determination (Waley's method)
# Measurement parameters: read-out: Ki app, means from three independent studies
Recorded metric: Ki (nM)

- Compound: "NCCN[C@H]1CC[C@H](CC(=O)N[C@H]2Cc3cccc(C(=O)O)c3OB2O)CC1 [Tanibobactam, taniborbactam]"
  Recorded metric: "Ki"
  Unit label: "nM"
  Meas value: 34.6

###

# Tested on: serine-carbapenemase-producing isolates (Enterobacterales)
# Assay text: MIC, broth microdilution
# Format: cell-based
# Measurement parameters: Enterobacterales with serine-carbapenemases (80); fixed concentration (μg/mL) in label; read-out: MIC90
Recorded metric: MIC90

- Compound: "NCC[C@H](O)C(=O)N[C@@H]1C[C@H](N)[C@@H](O[C@H]2O[C@H](CN)[C@@H](O)[C@H](O)[C@H]2O)[C@H](O)[C@H]1O[C@H]1O[C@H](CO)[C@@H](O)[C@H](N)[C@H]1O [Amikacin]"
  Recorded metric: "MIC90"
  Meas value: "64 µg/mL"
- Compound: "O=C(O)c1cn(C2CC2)c2cc(N3CCNCC3)c(F)cc2c1=O [Ciprofloxacin]"
  Recorded metric: "MIC90"
  Meas value: "> 64 µg/mL"
- Compound: "C[C@H]1COc2c(N3CCN(C)CC3)c(F)cc3c(=O)c(C(=O)O)cn1c23 [Levofloxacin]"
  Recorded metric: "MIC90"
  Meas value: "> 64 µg/mL"
- Compound: "CC(C)(O/N=C(\\C(=O)N[C@@H]1C(=O)N2C(C(=O)[O-])=C(C[n+]3ccccc3)CS[C@H]12)c1csc(N)n1)C(=O)O [CAZ, ceftazidime]"
  Recorded metric: "MIC90"
  Meas value: "> 32 µg/mL"

###

# System tested: CTX-Ms and PDC-11
# Assay text: Ki app determination, range over enzymes
# Measurement parameters: read-out: Ki app values, range; range over CTX-Ms and PDC-11
pKi: −log10 of the molar value.

- Smiles repr: "N[C@@H](C(=O)N1CC(Oc2ccc3c(c2C(=O)O)OB(O)CC3)C1)c1c[nH]cn1"
  pKi: "9.10 to 10.18"

###

# System tested: CTX-M-15 (Escherichia coli)
# Sequence (Q9EXV5 29-291, species assumed): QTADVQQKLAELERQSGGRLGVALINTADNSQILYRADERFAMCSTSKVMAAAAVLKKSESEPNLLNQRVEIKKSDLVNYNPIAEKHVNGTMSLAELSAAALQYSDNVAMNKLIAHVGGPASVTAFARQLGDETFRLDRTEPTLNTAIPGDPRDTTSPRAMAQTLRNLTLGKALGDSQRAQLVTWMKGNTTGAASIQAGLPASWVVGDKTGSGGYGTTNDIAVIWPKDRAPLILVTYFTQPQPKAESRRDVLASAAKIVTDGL
# Assay text: Ki app determination (Waley's method)
# Measurement parameters: read-out: Ki app; CTX-M-15; means from three independent studies
Recorded metric: Ki (nM)

- Smiles repr: "NCCN[C@H]1CC[C@H](CC(=O)N[C@H]2Cc3cccc(C(=O)O)c3OB2O)CC1"
  Recorded metric: "Ki"
  Meas value: 0.0245

###

# System tested: SHV-12 (Klebsiella pneumoniae, UniProt P0A3M1, L31Q)
# Sequence (P0A3M1 22-286 L31Q): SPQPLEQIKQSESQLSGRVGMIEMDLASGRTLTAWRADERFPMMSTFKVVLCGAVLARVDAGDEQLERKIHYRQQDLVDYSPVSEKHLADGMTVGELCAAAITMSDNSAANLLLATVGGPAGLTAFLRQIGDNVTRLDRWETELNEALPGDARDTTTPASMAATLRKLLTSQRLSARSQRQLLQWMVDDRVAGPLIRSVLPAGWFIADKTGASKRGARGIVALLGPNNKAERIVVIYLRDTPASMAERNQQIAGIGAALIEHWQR
# Assay text: Ki app determination (Waley's method)
# Measurement parameters: read-out: Ki app; SHV-12; means from three independent studies

- Smiles repr: "NCCN[C@H]1CC[C@H](CC(=O)N[C@H]2Cc3cccc(C(=O)O)c3OB2O)CC1"
  System tested: "SHV-12 (Klebsiella pneumoniae, UniProt P0A3M1, L31Q)"
  Unit label: "nM"
  Ki: 4.73

###

# System tested: OXA-65 (Acinetobacter baumannii, UniProt Q58XD3)
# Sequence (Q58XD3 entry or part of it): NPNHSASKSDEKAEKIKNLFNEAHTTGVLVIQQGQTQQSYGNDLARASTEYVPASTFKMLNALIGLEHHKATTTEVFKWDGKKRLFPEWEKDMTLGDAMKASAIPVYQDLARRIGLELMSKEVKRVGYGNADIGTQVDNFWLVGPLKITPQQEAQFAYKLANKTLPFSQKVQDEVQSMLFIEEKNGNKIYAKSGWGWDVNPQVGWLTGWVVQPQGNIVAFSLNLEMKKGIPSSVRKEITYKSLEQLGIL
# Assay text: Ki app determination (Waley's method)
# Measurement parameters: read-out: Ki app; OXA-65; means from three independent studies
pKi: −log10 of the molar value.
Recorded metric: pKi

- Molecule: "NCCN[C@H]1CC[C@H](CC(=O)N[C@H]2Cc3cccc(C(=O)O)c3OB2O)CC1 [Tanibobactam, taniborbactam]"
  System tested: "OXA-65 (Acinetobacter baumannii, UniProt Q58XD3)"
  Meas value: "< 4.00"

###

# System tested: SHV-12 (Klebsiella pneumoniae, UniProt P0A3M1, L31Q)
# Assay text: Ki app determination (Waley's method)
# 1 = Ki below 20 nM (exclusive); -1 = Ki at/above 20 nM

- Compound: "N[C@@H](C(=O)N1CC(Oc2ccc3c(c2C(=O)O)OB(O)CC3)C1)c1c[nH]cn1 [KSP-1007]"
  System tested: "SHV-12 (Klebsiella pneumoniae, UniProt P0A3M1, L31Q)"
  Class name: -1
- Compound: "O=C(NC1CCNCC1)[C@@H]1CC[C@@H]2CN1C(=O)N2OS(=O)(=O)O [Relebactam, relebactam]"
  System tested: "SHV-12 (Klebsiella pneumoniae, UniProt P0A3M1, L31Q)"
  Class name: 1
- Compound: "NC(=O)[C@@H]1CC[C@@H]2CN1C(=O)N2OS(=O)(=O)O [Avibactam, avibactam]"
  System tested: "SHV-12 (Klebsiella pneumoniae, UniProt P0A3M1, L31Q)"
  Class name: 1
- Compound: "C[C@]1(Cn2ccnn2)[C@H](C(=O)O)N2C(=O)C[C@H]2S1(=O)=O [Tazobactam, tazobactam]"
  System tested: "SHV-12 (Klebsiella pneumoniae, UniProt P0A3M1, L31Q)"
  Class name: 1
- Compound: "O=C(O)C[C@@H]1CC[C@H](NC(=O)Cc2cccs2)B(O)O1 [Vaborbactam, vaborbactam]"
  System tested: "SHV-12 (Klebsiella pneumoniae, UniProt P0A3M1, L31Q)"
  Class name: -1

###

# System tested: UniProt Q58XD3
# Assay text: Ki app determination (Waley's method)
pKi: −log10 of the molar value.
The following compounds are shown together with reported pKi values.
Recorded metric: pKi

- Smiles repr: "C[C@]1(Cn2ccnn2)[C@H](C(=O)O)N2C(=O)C[C@H]2S1(=O)=O"
  Recorded metric: "pKi"
  Operator symbol: "<"
  Meas value: 4.00
- Smiles repr: "O=C(O)C[C@@H]1CC[C@H](NC(=O)Cc2cccs2)B(O)O1"
  Recorded metric: "pKi"
  Operator symbol: "<"
  Meas value: 4.00
- Smiles repr: "N[C@@H](C(=O)N1CC(Oc2ccc3c(c2C(=O)O)OB(O)CC3)C1)c1c[nH]cn1"
  Recorded metric: "pKi"
  Operator symbol: "="
  Meas value: 8.26
- Smiles repr: "NC(=O)[C@@H]1CC[C@@H]2CN1C(=O)N2OS(=O)(=O)O"
  Recorded metric: "pKi"
  Operator symbol: "="
  Meas value: 5.23
- Smiles repr: "O=C(NC1CCNCC1)[C@@H]1CC[C@@H]2CN1C(=O)N2OS(=O)(=O)O"
  Recorded metric: "pKi"
  Operator symbol: "<"
  Meas value: 4.00

###

# System: MEM-nonsusceptible Enterobacterales with serine-carbapenemases
# Assay text: MIC, broth microdilution
# Assay type: cell-based
# Measurement parameters: MEM-nonsusceptible Enterobacterales with serine-carbapenemases (58); CLSI breakpoints; marked c: breakpoints for β-lactam alone; tigecycline: FDA breakpoints
Labelling: CLSI MIC interpretation S (susceptible) reported below 20% becomes True; at or above becomes False.

- Compound: "CC(C)(O/N=C(\\C(=O)N[C@@H]1C(=O)N2C(C(=O)[O-])=C(C[N+]3(CCNC(=O)c4ccc(O)c(O)c4Cl)CCCC3)CS[C@H]12)c1csc(N)n1)C(=O)O [FDC, cefiderocol]"
  Class name: "False"
- Compound: "CC(C)(O/N=C(\\C(=O)N[C@@H]1C(=O)N2C(C(=O)[O-])=C(C[n+]3ccccc3)CS[C@H]12)c1csc(N)n1)C(=O)O [CAZ, ceftazidime]"
  Class name: "True"
- Compound: "C[C@@H](O)[C@H]1C(=O)N2C(C(=O)O)=C(S[C@@H]3CN[C@H](C(=O)N(C)C)C3)[C@H](C)[C@H]12 [MEM, meropenem]"
  Class name: "True"
- Compound: "C[C@H]1COc2c(N3CCN(C)CC3)c(F)cc3c(=O)c(C(=O)O)cn1c23 [Levofloxacin]"
  Class name: "False"
- Compound: "NCC[C@H](O)C(=O)N[C@@H]1C[C@H](N)[C@@H](O[C@H]2O[C@H](CN)[C@@H](O)[C@H](O)[C@H]2O)[C@H](O)[C@H]1O[C@H]1O[C@H](CO)[C@@H](O)[C@H](N)[C@H]1O [Amikacin]"
  Class name: "False"
